Measured IC50, listed per entry for reference.
- Test system: human erythrocytes
- method: in vitro
- Assay type: cell-based
- test.settings: red cells of human
Peptide text beside a SMILES is read from it.

Guide cases for IC50, answers given:
CCCC[C@H](NC(=O)[C@H](CCCCN)NC(=O)[C@H](CCCCN)NC(=O)[C@@H](N)CCCCN)C(=O)N[C@@H](Cc1cccc2ccccc12)C(=O)N[C@@H](Cc1ccccc1)C(=O)N[C@@H](Cc1cccc2ccccc12)C(N)=O [Compound 20] (HELM PEPTIDE1{K.K.K.[Nle].[O=C([C@H](Cc1cccc2ccccc12)N[*:1])[*:2]].F.[O=C([C@H](Cc1cccc2ccccc12)N[*:1])[*:2]].[am]}$$$$V2.0) : > 150 µM
CCCC[C@H](NC(=O)[C@H](CCCCN)NC(=O)[C@H](CCCCN)NC(=O)[C@@H](N)CCCCN)C(=O)N[C@@H](Cc1ccc2ccccc2c1)C(=O)N[C@@H](Cc1ccc(O)cc1)C(=O)N[C@@H](Cc1ccc2ccccc2c1)C(N)=O [Compound 22] (HELM PEPTIDE1{K.K.K.[Nle].[O=C([C@H](Cc1ccc2ccccc2c1)N[*:1])[*:2]].Y.[O=C([C@H](Cc1ccc2ccccc2c1)N[*:1])[*:2]].[am]}$$$$V2.0) : > 150 µM

Please turn your attention to the following entry.
For record CC(C)C[C@H](NC(=O)[C@H](CCCCN)NC(=O)[C@@H](N)CCCCN)C(=O)N[C@@H](CCCCN)C(=O)N[C@@H](Cc1ccc2ccccc2c1)C(=O)N[C@@H](Cc1ccccc1)C(=O)N[C@@H](Cc1ccc2ccccc2c1)C(N)=O [Compound 1] (HELM PEPTIDE1{K.K.L.K.[O=C([C@H](Cc1ccc2ccccc2c1)N[*:1])[*:2]].F.[O=C([C@H](Cc1ccc2ccccc2c1)N[*:1])[*:2]].[am]}$$$$V2.0) the listed IC50 is > 150 µM

----------
- method: in vitro
- Format: cell-based, dog
- test.settings: dog
Peptide text beside a SMILES is read from it.
assay.readout: hemolysis at 1 h, 150 µM (%)
Output spec: scalar in %, unitless text.

Worked cases, answers included:
CC(C)C[C@H](NC(=O)[C@H](CCCCN)NC(=O)[C@H](Cc1cccc2ccccc12)NC(=O)[C@H](Cc1ccccc1)NC(=O)[C@@H](N)Cc1cccc2ccccc12)C(=O)N[C@@H](CCCCN)C(=O)N[C@@H](CCCCN)C(N)=O [Compound 16] (HELM PEPTIDE1{[N[C@@H](Cc1cccc2ccccc12)C(=O)[*:2]].F.[O=C([C@H](Cc1cccc2ccccc12)N[*:1])[*:2]].K.L.K.K.[am]}$$$$V2.0) : 27.7
CCCC[C@H](NC(=O)[C@H](CCCCN)NC(=O)[C@H](CCCCN)NC(=O)[C@@H](N)CCCCN)C(=O)N[C@@H](Cc1ccc2ccccc2c1)C(=O)N[C@@H](Cc1ccccc1)C(=O)N[C@@H](Cc1ccc2ccccc2c1)C(N)=O [Compound 18] (HELM PEPTIDE1{K.K.K.[Nle].[O=C([C@H](Cc1ccc2ccccc2c1)N[*:1])[*:2]].F.[O=C([C@H](Cc1ccc2ccccc2c1)N[*:1])[*:2]].[am]}$$$$V2.0) : 101
CC(C)C[C@@H](NC(=O)[C@@H](Cc1cccc2ccccc12)NC(=O)[C@@H](Cc1ccccc1)NC(=O)[C@H](N)Cc1cccc2ccccc12)C(=O)N[C@@H](CCCCN)C(=O)N[C@@H](CCCCN)C(=O)N[C@@H](CCCCN)C(N)=O [Compound 9] (HELM PEPTIDE1{[N[C@H](Cc1cccc2ccccc12)C(=O)[*:2]].[dF].[O=C([C@@H](Cc1cccc2ccccc12)N[*:1])[*:2]].[dL].K.K.K.[am]}$$$$V2.0) : 25.5
CC(C)C[C@H](NC(=O)[C@H](CCCCN)NC(=O)[C@H](Cc1ccc2ccccc2c1)NC(=O)[C@H](Cc1ccccc1)NC(=O)[C@@H](N)Cc1ccc2ccccc2c1)C(=O)N[C@@H](CCCCN)C(=O)N[C@@H](CCCCN)C(N)=O [Compound 13] (HELM PEPTIDE1{[N[C@@H](Cc1ccc2ccccc2c1)C(=O)[*:2]].F.[O=C([C@H](Cc1ccc2ccccc2c1)N[*:1])[*:2]].K.L.K.K.[am]}$$$$V2.0; N-terminus assumed) : 27.4

Just so you know, measured hemolysis at 1 h, 150 µM for CC(C)C[C@H](NC(=O)[C@H](CCCCN)NC(=O)[C@H](CCCCN)NC(=O)[C@@H](N)CCCCN)C(=O)N[C@@H](Cc1ccc2ccccc2c1)C(=O)N[C@@H](Cc1ccc(O)cc1)C(=O)N[C@@H](Cc1ccc2ccccc2c1)C(N)=O [Compound 17] (HELM PEPTIDE1{K.K.K.L.[O=C([C@H](Cc1ccc2ccccc2c1)N[*:1])[*:2]].Y.[O=C([C@H](Cc1ccc2ccccc2c1)N[*:1])[*:2]].[am]}$$$$V2.0) came out at 100

----------
Each item that follows carries a reported hemolysis at 1 h, 150 µM.
- method: in vitro
- Type: cell-based, human
- test.settings: human
Square brackets hold non-standard residues; d marks the D form. Peptide text beside a SMILES is read from it. N(1-naphthylmethyl)Gly = O=C(O)CNCc1cccc2ccccc12; Nphe = O=C(O)CNCc1ccccc1; NBuGly = CCCCNCC(=O)O
Include the unit right after the number.

CCCCN(CC(=O)N[C@@H](CCCCN)C(=O)N[C@@H](CCCCN)C(=O)N[C@@H](CCCCN)C(N)=O)C(=O)CN(Cc1cccc2ccccc12)C(=O)CN(Cc1ccccc1)C(=O)CNCc1cccc2ccccc12 [Compound 2] (H-[N(1-naphthylmethyl)Gly][Nphe][N(1-naphthylmethyl)Gly][NBuGly]KKK-NH2) : 78.1%

Turning now to a further molecule:
Measured hemolysis at 1 h, 150 µM of CC(C)C[C@H](NC(=O)[C@H](CCCCN)NC(=O)[C@H](CCCCN)NC(=O)[C@@H](N)CCCCN)C(=O)N[C@@H](Cc1cccc2ccccc12)C(=O)N[C@@H](Cc1ccc(O)cc1)C(=O)N[C@@H](Cc1cccc2ccccc12)C(N)=O [Compound 19, Lys-Lys-Lys-Leu(1-Nal)Ala-Tyr-(1-Nal)Ala] (HELM PEPTIDE1{K.K.K.L.[O=C([C@H](Cc1cccc2ccccc12)N[*:1])[*:2]].Y.[O=C([C@H](Cc1cccc2ccccc12)N[*:1])[*:2]].[am]}$$$$V2.0) : 82.7%

----------
- method: in vitro
- Assay type: cell-based, dog
- test.settings: dog
Peptide text beside a SMILES is read from it.
assay.readout: hemolysis at 1 h, 150 µM (%)
Give the number; % is assumed, so skip it.

// solved cases for hemolysis at 1 h, 150 µM follow
CC(C)C[C@@H](NC(=O)[C@H](CCCCN)NC(=O)[C@@H](N)CCCCN)C(=O)N[C@@H](CCCCN)C(=O)N[C@H](Cc1cccc2ccccc12)C(=O)N[C@H](Cc1ccccc1)C(=O)N[C@H](Cc1cccc2ccccc12)C(N)=O [Compound 10] (HELM PEPTIDE1{K.K.[dL].K.[O=C([C@@H](Cc1cccc2ccccc12)N[*:1])[*:2]].[dF].[O=C([C@@H](Cc1cccc2ccccc12)N[*:1])[*:2]].[am]}$$$$V2.0) : 36.3
CC(C)C[C@@H](NC(=O)[C@H](CCCCN)NC(=O)[C@H](CCCCN)NC(=O)[C@@H](N)CCCCN)C(=O)N[C@H](Cc1ccc2ccccc2c1)C(=O)N[C@H](Cc1ccccc1)C(=O)N[C@H](Cc1ccc2ccccc2c1)C(N)=O [Compound 12] (HELM PEPTIDE1{K.K.K.[dL].[O=C([C@@H](Cc1ccc2ccccc2c1)N[*:1])[*:2]].[dF].[O=C([C@@H](Cc1ccc2ccccc2c1)N[*:1])[*:2]].[am]}$$$$V2.0) : 50.2
CC(C)C[C@H](NC(=O)[C@H](CCCCN)NC(=O)[C@@H](N)CCCCN)C(=O)N[C@@H](CCCCN)C(=O)N[C@@H](Cc1ccc2ccccc2c1)C(=O)N[C@@H](Cc1ccccc1)C(=O)N[C@@H](Cc1ccc2ccccc2c1)C(N)=O [Compound 1] (HELM PEPTIDE1{K.K.L.K.[O=C([C@H](Cc1ccc2ccccc2c1)N[*:1])[*:2]].F.[O=C([C@H](Cc1ccc2ccccc2c1)N[*:1])[*:2]].[am]}$$$$V2.0) : 19.7

Now examine the next entry.
The reported hemolysis at 1 h, 150 µM of the compound CC(C)C[C@H](NC(=O)[C@H](CCCCN)NC(=O)[C@H](CCCCN)NC(=O)[C@@H](N)CCCCN)C(=O)N[C@@H](Cc1cccc2ccccc12)C(=O)N[C@@H](Cc1ccccc1)C(=O)N[C@@H](Cc1cccc2ccccc12)C(N)=O [Compound 7, Lys-Lys-Lys-Leu-(1-Nal)Ala-Phe(1-Nal)Ala] (HELM PEPTIDE1{K.K.K.L.[O=C([C@H](Cc1cccc2ccccc12)N[*:1])[*:2]].F.[O=C([C@H](Cc1cccc2ccccc12)N[*:1])[*:2]].[am]}$$$$V2.0) was 102

Reference source for all entries: paper PMC7414031
